Where do these numbers come from? They come from patent US6821970B2.

- target.of.assay: cloned human 5-HT6 receptor (Homo sapiens)
- Construct: host or cells: HeLa cells (G-418 selected); membrane preparation
- experiment.description: 5-HT6 receptor binding assay ([3H]-LSD radioligand, SPA beads)
- measurement.context: membranes of Hela cells containing cloned human 5-HT6 receptor, IC50 converted by Cheng-Prusoff
So basically: is Ki under 8 nM? Then rule met. Not under? Then rule not met.

Worked set:
• CCNCCOc1cccc2c1c1cccc3c1n2C(c1ccccc1)CO3.O=C(O)/C=C\C(=O)O (centres unmarked) = rule met
• c1ccc(C2COc3cccc4c5c(OCCN6CCNCC6)cccc5n2c34)cc1 (centres unmarked) = rule not met

Problem: In plain terms, does c1ccc(C2COc3cccc4c5c(OCCN6CCOCC6)cccc5n2c34)cc1 (centres unmarked) come in under 8 nM for Ki?
Result: rule not met

Problem: Determine whether this molecule shows Ki lower than 8 nM (ties excluded): NCCOc1cccc2c1c1cccc3c1n2[C@@H](c1ccccc1)CO3
Result: rule not met

Problem: is_below(Ki, 8 nM) for OCCNCCOc1cccc2c1c1cccc3c1n2[C@H](c1ccccc1)CO3 ?
Result: rule met

Problem: Identify whether the molecule NCCOc1c(Cl)ccc2c1c1cccc3c1n2C(c1ccccc1)CO3 (centres unmarked) records Ki below 8 nM.
Result: rule met

---

Record: Ki reported on cloned human 5-HT6 receptor (Homo sapiens, UniProt P50406).
Sequence (P50406 whole entry): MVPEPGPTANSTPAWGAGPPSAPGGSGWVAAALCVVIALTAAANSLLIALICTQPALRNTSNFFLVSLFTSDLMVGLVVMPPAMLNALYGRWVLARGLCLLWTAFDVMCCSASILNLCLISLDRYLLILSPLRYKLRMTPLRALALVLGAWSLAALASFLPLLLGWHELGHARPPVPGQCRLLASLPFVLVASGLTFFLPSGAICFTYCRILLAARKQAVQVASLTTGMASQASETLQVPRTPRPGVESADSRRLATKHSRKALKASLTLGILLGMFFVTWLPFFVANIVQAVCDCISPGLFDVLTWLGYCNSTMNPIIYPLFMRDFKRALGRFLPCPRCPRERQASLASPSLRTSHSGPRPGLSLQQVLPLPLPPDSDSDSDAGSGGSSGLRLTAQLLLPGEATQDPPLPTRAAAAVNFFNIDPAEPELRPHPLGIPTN
API: value field is a number in nM; no unit string.

The observed Ki for Cc1cc2c3c(c1)c1c(OCCN)cccc1n3C(c1ccccc1)CO2 (centres unmarked) when tested with cloned human 5-HT6 receptor (Homo sapiens, UniProt P50406) stands at 8

Measured Ki (cloned human 5-HT6 receptor (Homo sapiens, UniProt P50406)), entry CCN(CC)CCCCOc1cccc2c1c1cccc3c1n2C(c1ccccc1)CO3 (centres unmarked) : 28

---

Entries below carry reported Ki on cloned human 5-HT6 receptor (Homo sapiens, UniProt P50406).
Give the value, in units of nM, as a plain number.

In the examples that follow, each entry is paired with its recorded Ki.
- OCCNCCOc1cccc2c1c1cccc3c1n2C(c1ccccc1)CO3 (stereo not drawn): 1.1
- CCNCCOc1cccc2c1c1cc(C)cc3c1n2C(c1ccccc1)CO3 (stereo not drawn): 5.3

Please examine the following record next.
Field Ki (cloned human 5-HT6 receptor (Homo sapiens, UniProt P50406)), entry NCCOc1cccc2c1c1cccc3c1n2C(c1ccccc1)CO3 (stereo not drawn) : 1.7
